- Tested on: UO-31
- assay.text: NCI tumour cell line growth inhibition, 48 h
Calls of active or inactive are those of the source. No stated cut-off is given here; in the data, active = GI50 up to about 1.1 µM and inactive = higher.
measured.attribute: GI50

[[record]]
molecule = "c1ccc(CNc2ncnc3nn[nH]c23)cc1"
test_system = "UO-31"
assay_value = "91 µM (inactive)"

[[record]]
molecule = "CC[P+](c1ccccc1)(N(C)C)N(C)C"
test_system = "UO-31"
assay_value = "> 100 µM (inactive)"

[[record]]
molecule = "CC(=O)c1c2c(cc3c1CC1(Cc4cc5c(cc4C1)C(=O)CCC5)C3)CCCC2 (configuration not stated)"
test_system = "UO-31"
assay_value = "9.4 µM (inactive)"

[[record]]
molecule = "Cn1c(=O)nc2n(-c3ccc(Cl)cc3)c3cc(Cl)ccc3nc-2c1=O"
test_system = "UO-31"
assay_value = "11.4 µM (inactive)"

[[record]]
molecule = "O=C(CCCl)NN=C1NCCN1"
test_system = "UO-31"
assay_value = "> 100 µM (inactive)"

[[record]]
molecule = "O=C1C=CC(=O)c2c(Cl)ccc(O)c21"
test_system = "UO-31"
assay_value = "> 100 µM (inactive)"


Read the next record carefully.
Query string: For Clc1cccc(Cl)c1C1SCc2nc3cc4ccccc4cc3n21 (configuration not stated) , write its GI50.
Result string: > 100 µM (inactive)

----------
- Test system: HOP-62
- assay.text: NCI tumour cell line growth inhibition, 48 h
The source made the active and inactive calls. Rule as the data show it: active = GI50 up to about 1.1 µM and inactive = higher.
measured.attribute: GI50

A selection of reference data follows.
[[record]]
compound = "CCCCC/N=C/c1c(O)c(O)c(C(C)C)c2cc(C)c(-c3c(C)cc4c(C(C)C)c(O)c(O)c(/C=N/CCCCC)c4c3O)c(O)c12"
test_system = "HOP-62"
assay_value = "15.3 µM (inactive)"

[[record]]
compound = "O=C1/C(=C/C=C/c2ccccc2)CCC1CNc1ccc(Br)cc1 (stereo not given)"
test_system = "HOP-62"
assay_value = "> 100 µM (inactive)"

[[record]]
compound = "N#Cc1c(N)nc2[nH]nc(N)c2c1-c1ccc(Cl)cc1"
test_system = "HOP-62"
assay_value = "6.75 µM (inactive)"

[[record]]
compound = "CC(=O)OC1CC2Oc3ccc(C)cc3C(C)(O2)C1=O (stereo not given)"
test_system = "HOP-62"
assay_value = "> 100 µM (inactive)"

[[record]]
compound = "N#CCN(Cc1ccccc1)[C@H]1CCC[C@]1(O)/C=C/c1ccc2c(c1)OCO2"
test_system = "HOP-62"
assay_value = "26.3 µM (inactive)"

[[record]]
compound = "CC(C)C1(NC(=O)C2CC3c4cccc5[nH]cc(c45)CC3N(C)C2)OC2(O)C3CCCN3C(=O)C(Cc3ccccc3)N2C1=O (stereo not given)"
test_system = "HOP-62"
assay_value = "> 100 µM (inactive)"

[[record]]
compound = "CCC(CS(=O)(=O)O)[N+](=O)[O-] (stereo not given)"
test_system = "HOP-62"
assay_value = "> 100 µM (inactive)"

[[record]]
compound = "COc1cc(Br)c(CC2C3=C(CCN2C(=O)C2CCC2)CC2(CC3)OCCO2)cc1O (stereo not given)"
test_system = "HOP-62"
assay_value = "> 100 µM (inactive)"


I'm hoping you can list GI50 for every compound here, please.
1. Cc1ccc2c(c1)C/C(=C\c1ccccc1C(=O)O)C2=O
2. COC(=O)[C@@H]1CN(C(=O)CCc2ccccc2)C(=O)N1

Result string:
["> 100 µM (inactive)", "> 100 µM (inactive)"]

----------
- Tested on: OVCAR-5
- assay.text: NCI tumour cell line growth inhibition, 48 h
Active and inactive are the calls of the source. Cut-off read from the data, not from the text of the source: active = GI50 up to about 1.1 µM and inactive = higher.
Return exactly one item of YES (active), NO (inactive)

Record excerpt, results attached:
[[record]]
molecule = "COC(=O)[C@@]1(NC(=O)C(CC(=O)OC(C)(C)C)NC(=O)OC(C)(C)C)C[C@H]1C (stereo not given in full)"
test_system = "OVCAR-5"
class_label = "NO"

[[record]]
molecule = "CN(C)C(=S)/N=c1\\ssc(=S)n1Cc1cccnc1"
test_system = "OVCAR-5"
class_label = "NO"

[[record]]
molecule = "O=c1[nH]ccc(CNC23CC4CC(CC(C4)C2)C3)c1O"
test_system = "OVCAR-5"
class_label = "NO"

[[record]]
molecule = "O=C(Nc1nnc(-c2c(Cl)c(Cl)c(Cl)c(Cl)c2-c2nc3cc(C(=O)c4ccccc4)ccc3[nH]2)o1)c1ccccc1"
test_system = "OVCAR-5"
class_label = "NO"


Query string: I'd appreciate the recorded outcome for O=C(OC1CC(n2cc(F)c(=O)[nH]c2=O)OC1CSC(=O)c1ccccc1)c1ccccc1 (stereo not given) from this test.
Result string: NO

Query string: I'd appreciate the recorded outcome for `CCn1c(=O)c2cn[nH]c2n(C)c1=O` from this test.
Result string: NO

Query string: I'd appreciate the recorded outcome for `CCN(CC)CCNc1ccc2nc(C)n3c4ccc(O)cc4c(=O)c1c23` from this test.
Result string: YES

Query string: I'd appreciate the recorded outcome for `COC(=O)C(=Cc1cc(OC)ccc1OC)C(=O)OC` from this test.
Result string: NO

Query string: I'd appreciate the recorded outcome for `O=C(Nn1c(-c2ccccc2)nc2ccccc2c1=O)c1ccc(CS)cc1` from this test.
Result string: NO

Query string: I'd appreciate the recorded outcome for `CCc1nc(N)nc(N)c1-c1ccc(Cl)c(N=[N+]=[N-])c1` from this test.
Result string: NO

----------
- System: RPMI-8226
- assay.text: NCI tumour cell line growth inhibition, 48 h
Activity calls are given as the source filed them. No stated cut-off is given here; in the data, active = GI50 up to about 1.1 µM and inactive = higher. Where a SMILES comes first, the peptide text is derived from it. [ ]: non-standard residue; d: D form. The star is where a group is joined. ξ: configuration not given here. ξNMe2Val = CC(C)C(C(=O)*)N(C)C; NMeV = CN[CH](C(=O)O)C(C)C; NHBn = c1ccc(CN*)cc1
Return exactly one item of yes = active, no = inactive

[[record]]
compound = "COC(=O)[C@]1(C)CCC[C@@]2(C)C1CCC1=C[C@@]3(C(C)C)CC[C@]12OO3 (some centres not stated)"
class_label = "no"

[[record]]
compound = "[N-]=[N+]=Nc1ccc(S(=O)(=O)Oc2cc(OS(=O)(=O)c3ccc(N=[N+]=[N-])cc3)cc(OS(=O)(=O)c3ccc(N=[N+]=[N-])cc3)c2)cc1"
class_label = "no"

[[record]]
compound = "COC12CCC(C(C(=O)c3ccccc3)=C1C(=O)c1ccccc1)C(O)C2 (configuration not stated)"
class_label = "no"


Query string: I'd appreciate the recorded outcome for COC(=O)C1=C(C(=O)OC)N(c2ccncc2)C(c2ccco2)=CC1c1ccccc1[N+](=O)[O-] (configuration not stated) from this test.
Result string: no

Query string: I'd appreciate the recorded outcome for `C=CCc1cc2cccc(OC)c2oc1=O` from this test.
Result string: no

Query string: I'd appreciate the recorded outcome for COC(=O)C(C(=O)C(=O)Nc1ccc(Br)cc1)c1nc2ccc(Cl)cc2nc1O (configuration not stated) from this test.
Result string: no

Query string: I'd appreciate the recorded outcome for `CO[C@]1(c2ccc([N+](=O)[O-])cc2)Oc2ccccc2C(=O)[C@@]1(Nc1ccc(C=O)cc1)OC` from this test.
Result string: no

Query string: I'd appreciate the recorded outcome for `CC(=O)OCCOCNC(=S)N/N=C(\C)c1cnccn1` from this test.
Result string: no

Query string: I'd appreciate the recorded outcome for CC(C)C(NC(=O)C(C(C)C)N(C)C)C(=O)N(C)C(C(=O)N1CCCC1C(=O)N1CCCC1C(=O)NCc1ccccc1)C(C)C (configuration not stated) (ξNMe2Val-V[NMeV]PP-NHBn; configuration not given here) from this test.
Result string: yes

----------
- Test system: NCI-H522
- assay.text: NCI tumour cell line growth inhibition, 48 h
The source made the active and inactive calls. No stated cut-off is given here; in the data, active = GI50 up to about 1.1 µM and inactive = higher.
Return exactly one item of true for active, false for inactive

[[record]]
compound = "NNC(=O)CNC(=O)c1ccc(Cl)cc1Cl"
class_label = "false"

[[record]]
compound = "COc1ccc2oc(=O)c(CC=C(C)C)c(O)c2c1C"
class_label = "false"

[[record]]
compound = "CCN(CC)Cc1cc(Nc2c3ccccc3nc3c4ccccc4n(C)c23)ccc1O"
class_label = "false"

[[record]]
compound = "Cc1ccc2c(c1)NC(=O)C(N=[N+]=[N-])(c1ccccc1)C2=O (configuration not stated)"
class_label = "false"

[[record]]
compound = "CC(C)(C)c1cc2c3c(c1)c(=O)c1cccc4c(O)c5cccc(c2=O)c5c-3c41"
class_label = "false"

[[record]]
compound = "CCN(CC)CCNc1ccc2nc(C)n3c4ccc(O)cc4c(=O)c1c23"
class_label = "true"


Query string: I'd appreciate the recorded outcome for CSc1nc(SC)c2c(C)cn(C3OC(C)C(O)C(O)C3O)c2n1 (configuration not stated) from this test.
Result string: false

Query string: I'd appreciate the recorded outcome for `Cn1c2ccc([N+](=O)[O-])cc2c(=O)n1Cc1ccccc1F` from this test.
Result string: false

Query string: I'd appreciate the recorded outcome for CC1(C)CCC[C@@]2(C)C1CC[C@@]1(CO)O[C@H](C3=CC(=O)OC3O)C[C@H]12 (some centres not stated) from this test.
Result string: false

Query string: I'd appreciate the recorded outcome for COC(=O)[C@@]12C3=NO[C@]1(C(=O)OC)C(O[Si](C)(C)C(C)(C)C)[C@@H](OC(C)=O)[C@@H](OC(C)=O)[C@@H]2[C@@H](OCc1ccccc1)CC3 (some centres not stated) from this test.
Result string: false

Query string: I'd appreciate the recorded outcome for `COc1ccc(Br)c(N/N=C2\CCCNC2=O)c1` from this test.
Result string: false

Query string: I'd appreciate the recorded outcome for C=C1CC(COc2ccc3c(C)c(C)c(=O)oc3c2C)(c2ccccc2)OC1=O (configuration not stated) from this test.
Result string: false

Query string: I'd appreciate the recorded outcome for `COc1cc(Br)c(/C=N\c2cccc3ccc(OS(=O)(=O)c4cccc([N+](=O)[O-])c4)cc23)cc1OC` from this test.
Result string: false

Query string: I'd appreciate the recorded outcome for O=C1CSC(c2cc3cc(Br)ccc3nc2Cl)N1c1ccc(Cl)cc1 (configuration not stated) from this test.
Result string: false

Query string: I'd appreciate the recorded outcome for `Nc1ncnc2c1ncn2[C@H]1C=C[C@@H](NO)C1` from this test.
Result string: false

Query string: I'd appreciate the recorded outcome for `O=c1/c(=C/c2ccccc2[N+](=O)[O-])sc2nnc(-c3ccco3)n12` from this test.
Result string: false

Query string: I'd appreciate the recorded outcome for `CC(C)(Oc1ccc(C(=O)c2ccc(Cl)cc2)cc1Cl)C(=O)N1CCN(c2ccccc2)CC1` from this test.
Result string: false

Query string: I'd appreciate the recorded outcome for `CCn1c(-c2ccccc2)nc2c1C(=O)c1ccccc1C2=O` from this test.
Result string: false

Query string: I'd appreciate the recorded outcome for `C=CCN1C[C@@H](C)N([C@@H](c2ccc(C(=O)N(CC)CC)cc2)c2cccc(OC)c2)C[C@@H]1C` from this test.
Result string: false

Query string: I'd appreciate the recorded outcome for CN1C(=O)CCC1c1ccc2c(c1)oc(=O)n2C (configuration not stated) from this test.
Result string: false

Query string: I'd appreciate the recorded outcome for `O=C(N/N=C/c1c(-c2ccccc2)no[n+]1[O-])N1CCOCC1` from this test.
Result string: false

Query string: I'd appreciate the recorded outcome for `Clc1cc(OCC23CC4CC(CC(C4)C2)C3)nc(OCC23CC4CC(CC(C4)C2)C3)n1` from this test.
Result string: false

Query string: I'd appreciate the recorded outcome for `CC1(C)SCc2nc3ncccc3n21` from this test.
Result string: false
